Assay Info: chemical genetic growth profiling, strain panel (AID 1159580);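 also: tested at 20 µM; growth read once vehicle control cultures reached saturation at 30 °C; 1 = growth at the plate median or of vehicle wells; lower values mean less growth of the strain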
Test Settings: S. cerevisiae deletion strains, growth OD, locus YDR001C, strain nth1, stronger effect = lower value
In all, about 5,500 compounds went through this assay and about 2,000 (36%) were called active. About 18% were inconclusive and are not listed. This is one part of the list.
What normalized growth was measured for each of the following?
Reply briefly: the number, and no unit.

Fill in reported normalized growth for this entry: "O=C(O)CCC(=O)Nc1ccc(S(=O)(=O)Nc2nccs2)cc1"
1

Using the record for "C[C@H](N)[C@H](O)c1cccc(O)c1" , state its measured normalized growth.
0.999

Give reported normalized growth value for "CO[C@]12C[C@@H](COC(=O)c3cncc(Br)c3)CN(C)[C@@H]1Cc1cn(C)c3cccc2c13"
0.994

Hello, please tell me recorded normalized growth for this one: "C[C@@H](N)[C@@H](O)c1ccccc1"
1.01

State its normalized growth for this molecule: "N[C@H](Cc1ccccc1)C(=O)O"
0.987

Identify normalized growth associated with the molecule CC1CCC2(OC1)OC1CC3C4CCC5C[C@@H](O)CCC5(C)C4=CCC3(C)C1[C@@H]2C (stereo not given in full)
0.997

Respond only with normalized growth recorded for "CCCCC[C@H](CC(=O)NO)C(=O)N[C@H](C(=O)N1CCC[C@H]1CO)C(C)C"
1.01

Recall and state the measured normalized growth for "CN(C)N=Nc1nc[nH]c1C(N)=O" .
0.975

Report normalized growth for Cc1cc(C)cc(OCC2CNC(=O)O2)c1 (stereo not given)
0.979

Identify measured normalized growth associated with "CC(=O)N=c1sc(S(N)(=O)=O)nn1C"
1

Measured values drawn from PubChem BioAssay AID1159580 for this set.
